Test: RPMI8226 myeloma cell viability, profiling panel, resazurin fluorescence, basal, 24 h, PK04 Diversity Set (AID 1180);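 also: RPMI8826 multiple myeloma cell line at 5000 cells per well; test concentration not given here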
Conditions: higher = more signal
attribute.measured: z-score

| smiles.record | measured.number |
| --- | --- |
| [N-]=[N+]=NCc1ccccc1[C@@H]1OC(c2ccc(OCCCO)cc2)=N[C@]1(CCS(=O)(=O)c1ccccc1)C(=O)NCCN1CCOCC1 | -0.185 |
| COCCOC(=O)N1C(=O)[C@@]2(c3cc(C#CCCO)ccc31)[C@H](c1ccc(OCCO)cc1)N1[C@H](c3ccccc3)[C@H](c3ccccc3)OC(=O)[C@H]1[C@@H]2C(=O)N1CCN(c2ncccn2)CC1 | 0.52 |
| COc1ccc([Si](C)(C)[C@H]2[C@H](CCO)O[C@@]3(C(=O)N(Cc4ccc(N5C(=O)COc6ccccc65)cc4)c4ccccc43)[C@@H]2C)cc1 | -5.05 |
